biological target: rh-α5β1 (Homo sapiens, UniProt P05556+P08648); assay: Competition binding studies by Biolayer Interferometry (epitope groups); details: immobilized mAb A-15B08; secondary mAb pre-mixed with 20 nM rh-α5β1; relative to antigen alone
Sequence (P08648 42-894 limits assumed): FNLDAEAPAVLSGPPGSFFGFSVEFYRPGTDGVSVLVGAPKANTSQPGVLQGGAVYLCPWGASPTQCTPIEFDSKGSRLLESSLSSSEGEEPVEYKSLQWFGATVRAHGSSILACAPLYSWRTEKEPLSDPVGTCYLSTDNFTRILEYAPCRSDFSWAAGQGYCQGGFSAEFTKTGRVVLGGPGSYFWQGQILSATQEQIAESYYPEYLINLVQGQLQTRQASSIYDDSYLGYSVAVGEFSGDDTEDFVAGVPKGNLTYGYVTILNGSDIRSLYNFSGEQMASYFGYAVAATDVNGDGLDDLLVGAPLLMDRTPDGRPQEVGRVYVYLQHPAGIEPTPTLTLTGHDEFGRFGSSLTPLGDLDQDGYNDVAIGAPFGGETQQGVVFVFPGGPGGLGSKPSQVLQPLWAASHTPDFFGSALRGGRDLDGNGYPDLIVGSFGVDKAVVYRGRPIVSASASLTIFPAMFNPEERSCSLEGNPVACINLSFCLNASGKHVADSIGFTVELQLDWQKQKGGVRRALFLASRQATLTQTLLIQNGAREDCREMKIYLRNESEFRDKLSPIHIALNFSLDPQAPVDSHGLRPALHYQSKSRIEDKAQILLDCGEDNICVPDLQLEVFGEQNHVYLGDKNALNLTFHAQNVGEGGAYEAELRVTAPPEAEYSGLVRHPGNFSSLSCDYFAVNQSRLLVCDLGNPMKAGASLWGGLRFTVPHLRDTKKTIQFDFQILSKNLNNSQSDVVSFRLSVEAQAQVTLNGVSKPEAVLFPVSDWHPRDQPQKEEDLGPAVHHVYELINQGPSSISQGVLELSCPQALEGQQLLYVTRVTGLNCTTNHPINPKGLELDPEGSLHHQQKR
Sequence (P08648 895-995 limits assumed): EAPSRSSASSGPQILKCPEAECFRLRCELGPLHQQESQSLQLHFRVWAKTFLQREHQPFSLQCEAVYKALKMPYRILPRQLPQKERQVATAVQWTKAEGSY
Sequence (P05556 21-728 limits assumed): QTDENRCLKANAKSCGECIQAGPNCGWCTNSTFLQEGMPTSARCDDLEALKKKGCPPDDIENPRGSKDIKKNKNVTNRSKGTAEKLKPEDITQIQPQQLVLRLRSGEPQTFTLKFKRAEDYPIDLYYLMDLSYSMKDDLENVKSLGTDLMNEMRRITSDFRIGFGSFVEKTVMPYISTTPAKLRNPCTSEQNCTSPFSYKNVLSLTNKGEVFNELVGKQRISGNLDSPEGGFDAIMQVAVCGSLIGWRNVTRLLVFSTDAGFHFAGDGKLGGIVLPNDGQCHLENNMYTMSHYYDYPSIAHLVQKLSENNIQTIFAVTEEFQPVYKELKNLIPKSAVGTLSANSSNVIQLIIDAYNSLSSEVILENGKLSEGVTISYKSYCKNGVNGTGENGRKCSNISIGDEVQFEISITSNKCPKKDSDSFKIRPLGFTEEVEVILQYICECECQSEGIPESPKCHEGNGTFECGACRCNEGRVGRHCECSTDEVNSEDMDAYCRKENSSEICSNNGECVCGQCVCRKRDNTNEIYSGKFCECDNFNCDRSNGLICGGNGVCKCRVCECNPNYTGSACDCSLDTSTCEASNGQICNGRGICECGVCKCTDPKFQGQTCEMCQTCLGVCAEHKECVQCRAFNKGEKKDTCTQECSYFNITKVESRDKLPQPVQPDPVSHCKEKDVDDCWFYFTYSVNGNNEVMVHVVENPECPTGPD
quantity-name: % Response (%)
One number for each entry, in %.

// sample A2-3B06: anti-α5β1 antibody, VH SEQ ID NO:42, VL SEQ ID NO:43 (antibody, V domains shown, A2-3B06 VH Sequence; A2-3B06 VL Sequence) VH: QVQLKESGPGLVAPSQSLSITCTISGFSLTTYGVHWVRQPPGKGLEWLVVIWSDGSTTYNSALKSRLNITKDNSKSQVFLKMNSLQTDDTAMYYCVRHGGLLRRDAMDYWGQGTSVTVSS VL: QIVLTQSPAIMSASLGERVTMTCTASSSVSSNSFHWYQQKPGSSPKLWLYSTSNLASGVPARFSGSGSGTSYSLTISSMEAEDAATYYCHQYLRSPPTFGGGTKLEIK , its % Response was 50.05
